Consider the following compounds; for each one, report its Ragweed plant response rating.
# Tested on: common ragweed (Ambrosia elatior)
# experiment_summary: Test C pre/postemergence
# Assay type: in vivo
# condition_notes: Postemergence, 62 g ai/ha; scale 0 to 100 (0 no effect, 100 complete control)
Give the figure only, with no unit attached.

Memo: CN(C)N=Cc1nc(C2CC2)nc(N)c1Br , reported Ragweed plant response rating: 20

Memo: COC(=O)CNc1nc(C2CC2)nc(C(=O)OC)c1Br , reported Ragweed plant response rating: 45

Memo: COC(=O)c1nc(C2CC2C)nc(N)c1Br (centres unmarked) , reported Ragweed plant response rating: 65

Memo: CC(=O)NN=Cc1nc(C2CC2)nc(N)c1Br , reported Ragweed plant response rating: 65

Memo: Nc1nc(C2CC2)nc(C=NO)c1Br , reported Ragweed plant response rating: 5

Memo: CCOC(=O)C(OC(C)=O)c1nc(C2CC2)nc(N)c1Br (centres unmarked) , reported Ragweed plant response rating: 40

Memo: CCCOC(=O)c1nc(C2CC2)nc(N)c1Br , reported Ragweed plant response rating: 75

Memo: COC(=O)c1nc(C2CC2)nc(N=CN(C)C)c1Br , reported Ragweed plant response rating: 70

====

Consider the following compounds; for each one, report its pest or weed control at 31 g/ha.
# Test system: cocklebur (Xanthium strumarium)
# experiment_summary: Test C pre/postemergence
# Format: in vivo
# condition_notes: Xanthium strumarium, post-emergence, Postemergence, 31 g ai/ha; read-out: Plant response rating (scale of 0 to 100), Cocklebur
Respond with the bare value in %.

Memo: COC(=O)c1nc(C2CC2)nc(N)c1Cl [Compound 9] , reported pest or weed control at 31 g/ha: 40

Memo: COC(=O)c1nc(C(C)C)nc(N)c1Br [Compound 3] , reported pest or weed control at 31 g/ha: 60

Memo: CCOC(=O)c1nc(-c2ccc(Cl)cc2)nc(N)c1Cl [Compound 64] , reported pest or weed control at 31 g/ha: 90

Memo: CCOC(=O)c1nc(C2CC2)nc(NN)c1Br [Compound 42] , reported pest or weed control at 31 g/ha: 0

Memo: COC(=O)c1nc(C2CC2)nc(N)c1Br [Compound 2] , reported pest or weed control at 31 g/ha: 65

====

# System: lambsquarters (Chenopodium album)
# experiment_summary: Test C pre/postemergence
# Format: in vivo
# condition_notes: Preemergence, 16 g ai/ha; scale 0 to 100, 0 no effect, 100 complete control
endpoint: Plant response rating, Lambsquarters
Give the figure only, with no unit attached.

Memo: Nc1nc(-c2ccc(Cl)cc2)nc(C(=O)[O-])c1Cl.[Na+] , reported Plant response rating, Lambsquarters: 20

Memo: Nc1nc(C2CC2)nc(C(=O)[O-])c1Cl.[Na+] , reported Plant response rating, Lambsquarters: 0

Memo: COC(=O)c1nc(C2CC2)nc(N=CN(C)C)c1Br , reported Plant response rating, Lambsquarters: 75

Memo: CCOC(=O)C(OC(C)=O)c1nc(C2CC2)nc(N)c1Br (stereo not shown) , reported Plant response rating, Lambsquarters: 0

====

# Tested on: cocklebur (Xanthium strumarium)
# experiment_summary: Test C pre/postemergence
# Assay type: in vivo
# condition_notes: Preemergence, 31 g ai/ha; scale 0 to 100, 0 no effect, 100 complete control
endpoint: Plant response rating, Cocklebur

Memo: Nc1nc(-c2ccc(Cl)cc2)nc(C(=O)[O-])c1Cl.[Na+] [Compound 117] , reported Plant response rating, Cocklebur: 0

Memo: Nc1nc(C2CC2)nc(C(=O)[O-])c1Cl.[Na+] [Compound 77] , reported Plant response rating, Cocklebur: 70

Memo: CCOC(=O)C(OC(C)=O)c1nc(C2CC2)nc(N)c1Br (stereo not shown) [Compound 47] , reported Plant response rating, Cocklebur: 0

Memo: CCCCOC(=O)c1nc(C2CC2)nc(N)c1Br [Compound 16] , reported Plant response rating, Cocklebur: 45

====

# Tested on: morningglory (Ipomoea coccinea)
# experiment_summary: Test C pre/postemergence
# Type: in vivo
# condition_notes: Postemergence, 125 g ai/ha; scale 0 to 100 (0 no effect, 100 complete control)
endpoint: Morningglory plant response rating
Give the figure only, with no unit attached.

Memo: CCCCOC(=O)c1nc(C2CC2)nc(N)c1Br , reported Morningglory plant response rating: 100

Memo: CCCOC(=O)c1nc(C2CC2)nc(N)c1Br , reported Morningglory plant response rating: 95

Memo: CN(C)N=Cc1nc(C2CC2)nc(N)c1Br , reported Morningglory plant response rating: 80

Memo: Nc1nc(C2CC2)nc(C=NO)c1Br , reported Morningglory plant response rating: 85

====

# Test system: lambsquarters (Chenopodium album)
# experiment_summary: Test B pre/postemergence
# Type: in vivo
# condition_notes: Postemergence, 125 g ai/ha; scale 0 to 100 (0 no effect, 100 complete control)
Consider the following molecules; for each one, report its Lambsquarters plant response rating.
Give the figure only, with no unit attached.

Memo: COC(=O)CNc1nc(C2CC2)nc(C(=O)OC)c1Br , reported Lambsquarters plant response rating: 80

Memo: CCOC(=O)C(C)c1nc(C2CC2)nc(N)c1Br (centres unmarked) , reported Lambsquarters plant response rating: 70

Memo: CNN=Cc1nc(C2CC2)nc(N)c1Br , reported Lambsquarters plant response rating: 80

Memo: CC=NNc1nc(C2CC2)nc(C(=O)OC)c1Br , reported Lambsquarters plant response rating: 40

Memo: CCCOC(=O)c1nc(C2CC2)nc(N)c1Cl , reported Lambsquarters plant response rating: 100

Memo: CCOC(=O)c1nc(C2CC2)nc(NCCOC)c1Br , reported Lambsquarters plant response rating: 70

Memo: CCOC(=O)C(OC(C)=O)c1nc(C2CC2)nc(N)c1Br (centres unmarked) , reported Lambsquarters plant response rating: 80

Memo: Nc1nc(C2CC2)nc(C(=O)O)c1Cl , reported Lambsquarters plant response rating: 100

Memo: Nc1nc(C2CC2)nc(C(=O)[O-])c1Br.[Na+] , reported Lambsquarters plant response rating: 90

Memo: COC(=O)c1nc(C2CC2C)nc(N)c1Br (centres unmarked) , reported Lambsquarters plant response rating: 90

Memo: CCCCOC(=O)c1nc(C2CC2)nc(N)c1Br , reported Lambsquarters plant response rating: 100

Memo: CCOC(=O)C(Cl)(Cl)c1nc(C2CC2)nc(N)c1Br , reported Lambsquarters plant response rating: 70

Memo: CCOC(=O)c1nc(-c2ccc(I)cc2)nc(N)c1Cl , reported Lambsquarters plant response rating: 100

Memo: CCOC(=O)Cc1nc(-c2ccc(Cl)cc2)nc(N)c1Br , reported Lambsquarters plant response rating: 80

====

# Test system: soybean (Glycine max)
# experiment_summary: Test C pre/postemergence
# Format: in vivo
# condition_notes: Glycine max, pre-emergence, Preemergence, 62 g ai/ha; scale 0 to 100, 0 no effect, 100 complete control; read-out: Plant response rating, Soybean
endpoint: plant injury at 62 g/ha (%)
Respond with the bare value in %.

Nc1nc(-c2ccc(Cl)cc2)nc(C(=O)O)c1Cl tested on soybean (Glycine max) gave plant injury at 62 g/ha: 95

CCOC(=O)c1nc(C2CC2)nc(N)c1Cl tested on soybean (Glycine max) gave plant injury at 62 g/ha: 95

COC(=O)c1nc(C(C)C)nc(N)c1Br tested on soybean (Glycine max) gave plant injury at 62 g/ha: 0

COC(=O)c1nc(C2CC2)nc(N)c1Cl tested on soybean (Glycine max) gave plant injury at 62 g/ha: 100

====

Consider the following compounds; for each one, report its pest or weed control at 125 g/ha.
# Tested on: morningglory (Ipomoea coccinea)
# experiment_summary: Test C pre/postemergence
# Type: in vivo
# condition_notes: Ipomoea, pre-emergence, Preemergence, 125 g ai/ha; scale 0 to 100; read-out: Plant response rating, Morningglory
# answer = value followed by unit

Memo: CCOC(=O)c1nc(C2CC2)nc(N)c1Br , reported pest or weed control at 125 g/ha: 100%

Memo: Nc1nc(C2CC2)nc(C(=O)O)c1Br , reported pest or weed control at 125 g/ha: 100%

Memo: CNc1nc(C2CC2)nc(C(=O)OC)c1Br , reported pest or weed control at 125 g/ha: 80%

Memo: COC(=O)c1nc(C2CC2)nc(N)c1F , reported pest or weed control at 125 g/ha: 90%

Memo: COC(=O)c1nc(C(C)C)nc(N)c1Br , reported pest or weed control at 125 g/ha: 20%

====

# Test system: rice (Oryza sativa)
# experiment_summary: Test B flooded paddy test
# Assay type: in vivo
# condition_notes: Flood, 1000 g ai/ha; scale 0 to 100
endpoint: Plant response rating, Rice
Give the figure only, with no unit attached.

Memo: CC(C)COC(=O)c1nc(C2CC2)nc(N)c1Br [Compound 17] , reported Plant response rating, Rice: 50

Memo: CCOC(=O)c1nc(C2CC2)nc(NCCOC)c1Br [Compound 39] , reported Plant response rating, Rice: 0

Memo: COC(=O)c1nc(C2CC2)nc(N=CN(C)C)c1Br [Compound 19] , reported Plant response rating, Rice: 60

Memo: CCOC(=O)Cc1nc(C2CC2)nc(N)c1Br [Compound 12] , reported Plant response rating, Rice: 20

Memo: CON=Cc1nc(C2CC2)nc(N)c1Br [Compound 48] , reported Plant response rating, Rice: 0

Memo: CCOC(=O)C(C)c1nc(C2CC2)nc(N)c1Br (stereo not shown) [Compound 32] , reported Plant response rating, Rice: 0

Memo: CN(C)N=Cc1nc(C2CC2)nc(N)c1Br [Compound 50] , reported Plant response rating, Rice: 30
